Test system: Thyroperoxidase (TPO), gene 54314
measurement protocol: CCTE_Simmons_AUR_rTPO: CCTE's Amplex UltraRed Assay for Thyroperoxidase (TPO) Inhibition, Simmons Lab (AID 2283662)
Activity calls are given as the source filed them. How the source made its calls: active means hit-call score of the fitted dose curve at least 0.9, where 1 is the maximum; inconclusive means response in the unintended direction; inactive means score below 0.9.
Possible outcomes: 1 = active, -1 = inactive

molecule | group label
C=CC(=O)OCC(CC)CCCC (stereo not drawn) | -1
O=C(O)CCl | 1
COc1cc(OC)nc(Oc2cccc(Oc3nc(OC)cc(OC)n3)c2C(=O)O)n1 | 1
CCCCCCCCCCCCCCCC[N+](C)(C)C | 1
c1ccc2cc3c(cc2c1)-c1cccc2cccc-3c12 | -1
CC(C)(O)C#N | 1
O=C=Nc1ccccc1 | -1
Nc1ccc(Cl)c(Cl)c1 | 1
CCOC(=O)NC(=S)Nc1ccccc1NC(=S)NC(=O)OCC | 1
c1ccc(P(c2ccccc2)c2ccccc2)cc1 | 1
CC(C)c1ccc(O)cc1 | 1
Cc1ccc2cc3c(ccc4ccccc43)c3c2c1CC3 | -1
[CH3][Hg][Cl] | -1

Sourced from PubChem BioAssay (EPA / NIEHS)
